Molecular target: T1, human MASP-3 (construct not stated) (human)
T1 construct: also called MASP-3 antigen
T1 chain: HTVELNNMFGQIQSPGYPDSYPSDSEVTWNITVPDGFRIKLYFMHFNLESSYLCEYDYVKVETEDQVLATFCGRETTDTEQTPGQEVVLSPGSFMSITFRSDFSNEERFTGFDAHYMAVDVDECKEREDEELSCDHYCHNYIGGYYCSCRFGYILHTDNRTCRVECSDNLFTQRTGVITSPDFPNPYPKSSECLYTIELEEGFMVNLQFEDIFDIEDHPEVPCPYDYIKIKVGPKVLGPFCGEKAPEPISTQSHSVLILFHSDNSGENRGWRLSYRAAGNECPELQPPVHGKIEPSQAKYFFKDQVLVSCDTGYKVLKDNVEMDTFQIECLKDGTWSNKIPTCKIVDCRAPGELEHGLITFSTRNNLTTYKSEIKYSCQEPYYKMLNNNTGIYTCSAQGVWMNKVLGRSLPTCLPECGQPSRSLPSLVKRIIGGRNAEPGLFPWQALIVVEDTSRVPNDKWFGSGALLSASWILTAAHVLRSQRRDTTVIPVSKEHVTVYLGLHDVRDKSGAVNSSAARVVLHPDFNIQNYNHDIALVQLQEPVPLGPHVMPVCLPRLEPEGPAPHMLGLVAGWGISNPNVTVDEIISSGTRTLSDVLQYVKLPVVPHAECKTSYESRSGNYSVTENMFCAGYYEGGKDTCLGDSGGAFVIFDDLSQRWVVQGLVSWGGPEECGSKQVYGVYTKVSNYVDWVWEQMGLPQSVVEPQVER
Test: ELISA, monovalent Fab
The label is rule met for EC50 below 200 pM and rule not met for EC50 equal to or exceeding 200 pM.

{"Binder": "h10D12-45-21-GA Fab (VH-45 and VL-21-GA) (Fab, V domains shown, Humanized monovalent Fab; also called 10D12-GA mutant) VH: QIQLVQSGSELKKPGASVKVSCKASGYIFTSYGMSWVRQAPGKGLKWMGWINTYSGVPTYADDFKGRFVFSLDTSVRTPYLQISSLKAEDTAVYFCARGGEAMDYWGQGTLVTVSS VL: DVLMTQTPLSLSVTPGQPASISCKSSQSLLDSDAKTYLNWLLQRPGQSPKRLIYLVSKLDSGVPDRFSGSGSGTDFTLKISRVEAEDVGVYYCWQGTHFPWTFGQGTKVEIKR", "Class label": "rule met"}
{"Binder": "h13B1_10-1 Fab (VH-10 and VL-1) (Fab, V domains shown, Humanized monovalent Fab; also called h13B1_10-1 parental Fab) VH: QVQLVQSGAEVKKPGASVKVSCKASGYTFTGKWIEWVRQAPGQGLEWIGEILPGTGSTNYNEKFKGRATFTADSSTSTAYMELSSLRSEDTAVYYCLRSEDVWGQGTLVTVSS VL: DIVMTQSPDSLAVSLGERATINCKSSQSLLNSRTRKNYLAWYQQKPGQPPKLLIYWASTRESGVPDRFSGSGSGTDFTLTISSLQAEDVAVYYCKQSYNIPTFGQGTKVEIKR", "Class label": "rule met"}
{"Binder": "h4D5_19-1 Fab (VH-19 and VL-1) (Fab, V domains shown, Humanized monovalent Fab; also called h4D5_19-1 parental Fab) VH: QVQLVQSGAEVKKPGASVKVSCKASGYTFTTDDINWVRQAPGQGLEWIGWIYPRDDRTKYNDKFKDRATLTVDTSSNTAYMELSSLRSEDTAVYYCSSLEDTYWGQGTLVTVSS VL: DIVMTQSPDSLAVSLGERATINCKSSQSLLNSRTRKNYLAWYQQKPGQPPKLLIYWASTRESGVPDRFSGSGSGTDFTLTISSLQAEDVAVYYCKQSYNLYTFGQGTKVEIKR", "Class label": "rule met"}
{"Binder": "h4D5-19-1-NQ Fab (VH-19 and VL-1-NQ) (Fab, V domains shown, also called 4D5-NQ mutant) VH: QVQLVQSGAEVKKPGASVKVSCKASGYTFTTDDINWVRQAPGQGLEWIGWIYPRDDRTKYNDKFKDRATLTVDTSSNTAYMELSSLRSEDTAVYYCSSLEDTYWGQGTLVTVSS VL: DIVMTQSPDSLAVSLGERATINCKSSQSLLQSRTRKNYLAWYQQKPGQPPKLLIYWASTRESGVPDRFSGSGSGTDFTLTISSLQAEDVAVYYCKQSYNLYTFGQGTKVEIKR", "Class label": "rule not met"}

Shift focus to the following entry.
is_below(EC50, 200 pM) for h10D12-45-21-DA Fab (VH-45 and VL-21-DA) (Fab, V domains shown, also called 10D12-DA mutant) VH: QIQLVQSGSELKKPGASVKVSCKASGYIFTSYGMSWVRQAPGKGLKWMGWINTYSGVPTYADDFKGRFVFSLDTSVRTPYLQISSLKAEDTAVYFCARGGEAMDYWGQGTLVTVSS VL: DVLMTQTPLSLSVTPGQPASISCKSSQSLLDSAGKTYLNWLLQRPGQSPKRLIYLVSKLDSGVPDRFSGSGSGTDFTLKISRVEAEDVGVYYCWQGTHFPWTFGQGTKVEIKR ?
rule not met
